tested on: MS2 coat protein; assay: apparent Kd, MS2 coat protein; higher = weaker binding; RNA-MaP array; details: designed as: OFF switch for flavin mononucleotide; no ligand
Label rule met when apparent Kd >= 0.04 µM; otherwise rule not met.

Q) Check if apparent Kd >= 0.04 µM (inclusive). Item: AUAAUCCCUGUUCAGAGACAUGAGGAUCACCCAUGUUUAACGAGAAGGUGAGUGCGACGGCGUCUCAAGGAUAUCGACGUGACC
A) rule not met

Q) Another sequence: UAAAGAGAAGGAUAUACAGGAAGAAAAGCCUCACAAUCGUAACAUGAGGAUCACCCAUGUAGAAGGACUAACAA
A) rule not met

Q) Another sequence: GUAACACUGUCAUCGCCGACAUGAGGAUCACCCAUGUGUAAGAGAAGGACCGAGACCGGGAAAUGGUAGGAUAUCUGUGGGUAG
A) rule met

Q) Another sequence: ACCAGGUCAGGAUAUAGUUGGCAUUUGGCUGUGCCUCACUACUAGAAGGGACAUGAGGAUCACCCAUGUUGGGC
A) rule not met

Q) Another sequence: ACGAAGUGAGGAUAUACAUGAGGAUCACCCAUGUGCCCAGGGUGUGAUUGUAAAGAACGUAGAAGGCACAAUAG
A) rule met

Q) Another sequence: UUCACGUUAGGAUAUCGCGUCAGCACAGCCUGUAUGGCAAGCGAGAAGGAACAUGAGGAUCACCCAUGUCGGAC
A) rule not met

Q) Another sequence: GCACUAGAGCAAGGAUAUAUAUCGGAAUCUACAUGAGGAUCACCCAUGUGUGUGACUUCUCGCAGAUAGAAGGUGCUCGCUGAC
A) rule met

----------
test system: MS2 coat protein; assay: apparent Kd, MS2 coat protein; higher = weaker binding; RNA-MaP array; conditions: designed as: ON switch for flavin mononucleotide; no ligand
readout-kind: apparent Kd (nM)
Respond numerically; units are nM and should not be typed.

Q) What does the record list as apparent Kd for GGCGGGAAAUGAGGAUAUGGUAGUUGAGAAACGCCAGAAGGCAUUGGCAAGGCUAGAGACAUGAGGAUCACCCAUGUAAUCAUA ?
A) 8.35

Q) Another sequence: UCAUGGUCUGGAGAGAGAAUUACAUGAGGAUCACCCAUGUGCAGAAGGAGUUAUCGCACAACAAACUAGGAUAUGCCAAGAAUU
A) 98.1

Q) Another sequence: GUGCACCGUGAGAAGGCAUAGCACGUGUCGCUGACAUGAGGAUCACCCAUGUGUUGUAAAGUGCAUGAGGAUAUCAGCCAUAGG
A) 42.3

Q) Another sequence: UUCUACUAGUGACACUACUAGACAUGAGGAUCACCCAUGUCAGAGGAUAUGGAAAGACAUUAUUACCAGAAGGCUGCCAAGGUA
A) 15.6

Q) Another sequence: UUUAGGUCAGAGAAGGGCCAUUCUACAUACUCGGCAGGAUAUCUAUUACCUGACAUGAGGAUCACCCAUGUGGUGAACCGACCA
A) 199

Q) Another sequence: GUGCGAAUGCAAGGAUAUGUCACAUAAACUGGAACAGAAGGUGCUGCUGAACAUGAGGAUCACCCAUGUACUUGACCGGCAACU
A) 7.6

Q) Another sequence: AUGUAACGUGAGAAGGUGUUGAAAUAAGUUCCAUAAAUCUUACAUGAGGAUCACCCAUGUUUAUACAAGGAUAUCAUUAAUUAU
A) 16.8

----------
system: MS2 coat protein; test: apparent Kd, MS2 coat protein; higher = weaker binding; RNA-MaP array; conditions: designed as: OFF switch for flavin mononucleotide; no ligand
Label T when apparent Kd >= 10 nM; otherwise F.

Q) Check if apparent Kd >= 10 nM (inclusive). Item: GGACAUGAGGAUCACCCAUGUAGUGGAGGGCUCAGGCUCGCAAGAAGGUUAAGAAUAUAGUCAAUAAAGGAUAUUGAGGGCCGA
A) T

Q) Another sequence: UAUACACAUCCACAUGAGGAUCACCCAUGUGUGCCUCGUUCCGAGGAUAUGGGCCACGAUGUUUCCCAGAAGGCGGUCGCUAUA
A) T

Q) Another sequence: GUGAUCAUCCGAGGAUAUUUUUCAUAGGCAUAAGGGGACAUGAGGAUCACCCAUGUAAACACCAUAAAGAAGGCGGGGCAGACC
A) T

Q) Another sequence: GGGAUUCGUGUUAGGAUAUUGAGGUGUAUUCCCGACAAGAAGGAACAUGAGGAUCACCCAUGUUGGGAACUGUG
A) T

Q) Another sequence: GGCCUUGUUGUUAUAGGACAUGAGGAUCACCCAUGUAUAUGUAAGGAUAUGAAUCGUAAGACGCAUCAGAAGGUACAGUACUGG
A) T

Q) Another sequence: AUACGUGCAGGAUAUUAUUCGAGCCACAUGAGGAUCACCCAUGUUAAUUCUUCAUGUAUCUAAGAAGGGCAGUGAA
A) F

Q) Another sequence: CUGGGCCAAUAGAAGGGCGGGAGCGCAGGUGAUCAAACCUAUUACAUGAGGAUCACCCAUGUAACGCAGGAUAUAUCGGUUUUA
A) T

Q) Another sequence: AAGAGCAGAGGAUAUACAUAGGCAUCAGUUGAAGCAGCUGAACAUGAGGAUCACCCAUGUAGAAGGCUGACAAA
A) F

Q) Another sequence: UGUACAACAUGAGGAUCACCCAUGUGGCACCUCUGUCGAUUCGAGGAUAUCAGGUAAAGUGGCUGUGAGAAGGCGAAAGUUCCG
A) T

Q) Another sequence: AGCUCGGCAGGAUAUACAUGAGGAUCACCCAUGUUUGCAGGCGCGCCGGUAGACUUUUGUAGAAGGGCCGUAUA
A) T

Q) Another sequence: CACAUUCCUUAGAAGGCUACGAAUUUAGCGCGUAGAGGAUAUAAGGGAUACAUGAGGAUCACCCAUGUGAUAUAUCUUCUGAAA
A) T

Q) Another sequence: CGCCACACAUGAUAAUCAUAACAUGAGGAUCACCCAUGUCAUAGAAGGUGCAUAUUUUAGAAUCGCAAGGAUAUAUGGACAAUU
A) T

Q) Another sequence: CUGAGCCUGUGUGUACAUGAGGAUCACCCAUGUUCGAUAGGGUAGGAUAUCGCAGUUUCUUGAGCCGAGAAGGACCCUAAUGGA
A) T

Q) Another sequence: ACAAAAUAGCUAGGAUAUCGUACGAAUUGACAUUUUUAGCAAACAUGAGGAUCACCCAUGUCCUACGAGAAGGAGCUUAUGAAG
A) T

Q) Another sequence: CCGUUUCGGACAAGCAACACAUGAGGAUCACCCAUGUCAAUCUAGGAUAUCAUAAGGAUAUAACGUGAGAAGGAGAGCGACAGG
A) T

Q) Another sequence: CCUUCGUCGAAUGUGUAACAUGAGGAUCACCCAUGUAGUCUGGAGGAUAUCUAACACAGCUGAAAAGAGAAGGCCAGGUCUGCA
A) T

Q) Another sequence: UGGCGCUGUGCAGGAUAUAUCAAUUAGAACAGGGCGCAGGGUAGAAACAUGAGGAUCACCCAUGUAUAGAAGGGCACAGUAGGU
A) T

Q) Another sequence: AGAAAACAUGAGGAUCACCCAUGUAAGGAUAUACAAACUCCAGAAAUAAAAGGAUUAAGAAGAAGGUACAUAAA
A) T

Q) Another sequence: GGUCGUCUAGUUAGGAUAUCAUUAUUAGAUUAAAUUGAGAAGGAACAUGAGGAUCACCCAUGUCGACAACUAUC
A) F

Q) Another sequence: GUCAACGAAGGAUAUACAGGGAUACCCGUCGAGUACGGAGCACAUGAGGAUCACCCAUGUAGAAGGUCGGUGUG
A) T

Q) Another sequence: UCUCUCGAUGUGCAUUGACAUGAGGAUCACCCAUGUACUGCCUAGGAUAUAACUGGCCCGAUCAGUUAGAAGGAGGGAGAAUAG
A) F

Q) Another sequence: GUUUUUUAAGGAUAUUCUAUUUCUAACAUGAGGAUCACCCAUGUACCCUCGUGCUAGCGAGAAGAAGGUAACAAAC
A) T

Q) Another sequence: AUAAACCUAGGAUAUACCAGGACGAUUCAACAAGAAAACGAACAUGAGGAUCACCCAUGUAGAAGGAGGGAAAG
A) T

Q) Another sequence: UAACGUACAAAAGGAUAUGCCAAUAGAAAGAUCUUACAAUAAACACAUGAGGAUCACCCAUGUAAGCAGAAGGUUUGGAAACAA
A) T

Q) Another sequence: GAUCUGGCGGUGAGGAUAUAUAUCAAAUGCAAGGCAUAGAAGGCACAUGAGGAUCACCCAUGUCUGCACCAGGG
A) T

Q) Another sequence: GCAUUAGAGGACACAUGAGGAUCACCCAUGUGCAUCAUCAGAUAGGAUAUCUUAACAGAAAUUUGAGAGAAGGAUCGUGUUCGG
A) F

Q) Another sequence: UCCAAAUUCCAGAAGGCGUUUAAGCGAGGGUAGGGCGUGCAACAUGAGGAUCACCCAUGUAAUCACGAGGAUAUGGGAGGCACC
A) F

Q) Another sequence: GCGCGCGGUGGCGGUCAACAUGAGGAUCACCCAUGUGUGAACAGAAGGCGCGUAUGCUACCAUGGCGAGGAUAUGUUGGGUCAG
A) F

Q) Another sequence: CCAUAAGACGAGAAGGGCUGCCAACUAGGUAGAGCAGGAUAUCGUCUUACUCGUCAUGGCAAAACAUGAGGAUCACCCAUGUAU
A) F
